- experimental_target: mTORC2 (Homo sapiens) (UniProt P42345+Q6R327+Q9BVC4+Q9BPZ7)
- test_details: Inhibition of mTORC2 signaling in human HEK293 cells assessed as reduction in leucine-induced AKT phosphorylation at 200 uM preincubated for 50 mins followed by leucine-stimulation and measured after 10 mins by Western blot analysis
- Format: cell-based
The source made the active and inactive calls. The rule behind the calls is not given here.
Permitted responses: active, inactive

Here's what some known entries look like.
chemical_string	experimental_target	category
CC(C)[C@@H](O)[C@H](O)C(=O)NS(=O)(=O)OC[C@H]1O[C@@H](n2cnc3c(N)ncnc32)[C@H](O)[C@@H]1O	mTORC2 (Homo sapiens) (UniProt P42345+Q6R327+Q9BVC4+Q9BPZ7)	inactive
CC(C)[C@@H](O)[C@H](O)C(=O)NS(=O)(=O)OC[C@H]1O[C@@H](n2cnc3c(N)ncnc32)C[C@@H]1O	mTORC2 (Homo sapiens) (UniProt P42345+Q6R327+Q9BVC4+Q9BPZ7)	inactive
CC(C)C[C@H](O)C(=O)NS(=O)(=O)OC[C@@H]1C[C@@H](O)[C@H](n2cnc3c(N)ncnc32)O1	mTORC2 (Homo sapiens) (UniProt P42345+Q6R327+Q9BVC4+Q9BPZ7)	active
CC(C)[C@@H](O)[C@H](O)C(=O)NS(=O)(=O)OC[C@H]1O[C@@H](n2cnc3c(N)nc(I)nc32)[C@H](O)[C@@H]1O	mTORC2 (Homo sapiens) (UniProt P42345+Q6R327+Q9BVC4+Q9BPZ7)	inactive
CC(C)[C@@H](O)[C@H](O)C(=O)NS(=O)(=O)OC[C@@H]1C[C@@H](O)[C@H](n2cnc3c(N)ncnc32)O1	mTORC2 (Homo sapiens) (UniProt P42345+Q6R327+Q9BVC4+Q9BPZ7)	inactive
CC(C)C[C@H](O)C(=O)NS(=O)(=O)OC[C@H]1O[C@@H](n2cnc3c(N)ncnc32)C[C@@H]1O	mTORC2 (Homo sapiens) (UniProt P42345+Q6R327+Q9BVC4+Q9BPZ7)	active
CNc1ncnc2c1ncn2[C@@H]1O[C@H](COS(=O)(=O)NC(=O)[C@H](O)[C@@H](O)C(C)C)[C@@H](O)[C@H]1O	mTORC2 (Homo sapiens) (UniProt P42345+Q6R327+Q9BVC4+Q9BPZ7)	inactive
CC(C)C[C@H](O)C(=O)NS(=O)(=O)OC[C@H]1O[C@@H](n2cnc3c(N)ncnc32)[C@H](O)[C@@H]1O	mTORC2 (Homo sapiens) (UniProt P42345+Q6R327+Q9BVC4+Q9BPZ7)	inactive

[ask] I'd appreciate the recorded outcome for CNc1ncnc2c1ncn2[C@@H]1O[C@H](COS(=O)(=O)NC(=O)[C@H](CC(C)C)OC)[C@@H](O)[C@H]1O from this test.
[reply] active

[ask] Which outcome was assigned to CC(C)[C@H](O)[C@@H](O)C(=O)NS(=O)(=O)OC[C@H]1O[C@@H](n2cnc3c(N)ncnc32)[C@H](O)[C@@H]1O in this test?
[reply] inactive
